Provenance of the data: paper PMC4979872

System: HCT116 human colorectal carcinoma cell line
measurement_notes: MTT cytotoxicity assay on HCT116 cells
Assay type: cell-based
study_conditions: 24 h incubation, 5 to 600 µM, mean ± SEM of six experiments

[
  {
    "compound": "COc1ccc(NC(c2ccc3ccc4cccc5ccc2c3c45)P(=O)(OC)OC)cc1 (stereo not shown) [Compound 3Ad]",
    "IC50 [µM]": 20.8
  }
]

###

readout_type: melting point

[
  {
    "compound": "Cc1ccc(NC(c2ccc3ccc4cccc5ccc2c3c45)P(=O)(O)O)cc1 (centres unmarked)",
    "observed": "210 to 211 °C"
  },
  {
    "compound": "O=P(OCc1ccccc1)(OCc1ccccc1)C(NCc1ccccc1)c1ccc2ccc3cccc4ccc1c2c34 (centres unmarked)",
    "observed": "100 to 101 °C"
  },
  {
    "compound": "O=P(O)(O)C(NCc1ccccc1)c1ccc2ccc3cccc4ccc1c2c34 (centres unmarked)",
    "observed": "235 to 236 °C"
  },
  {
    "compound": "COP(=O)(OC)C(Nc1cccc(C)c1)c1ccc2ccc3cccc4ccc1c2c34 (centres unmarked)",
    "observed": "209 to 210 °C"
  },
  {
    "compound": "COP(=O)(OC)C(Nc1ccccc1)c1ccc2ccc3cccc4ccc1c2c34 (centres unmarked)",
    "observed": "203 to 204 °C"
  }
]

###

Test system: HCT116 human colorectal carcinoma cell line
measurement_notes: MTT cytotoxicity assay on HCT116 cells
Type: cell-based
study_conditions: Homo sapiens, HCT-116, 24 h, 24 h incubation, 5 to 600 µM, mean ± SEM of six experiments
# reported IC50; entries follow
readout_type: IC50 (µM)

[
  {
    "molecule": "COP(=O)(OC)C(Nc1cccc(C)c1)c1ccc2ccc3cccc4ccc1c2c34 (stereo not shown)",
    "readout_type": "IC50",
    "observed": 20.2
  },
  {
    "molecule": "COP(=O)(OC)C(Nc1ccccc1)c1ccc2ccc3cccc4ccc1c2c34 (stereo not shown)",
    "readout_type": "IC50",
    "observed": 70.8
  },
  {
    "molecule": "COP(=O)(OC)C(Nc1ccc(C)cc1)c1ccc2ccc3cccc4ccc1c2c34 (stereo not shown)",
    "readout_type": "IC50",
    "observed": 15.9
  },
  {
    "molecule": "COP(=O)(OC)C(O)c1ccc2ccc3cccc4ccc1c2c34 (stereo not shown)",
    "readout_type": "IC50",
    "observed": 40.4
  },
  {
    "molecule": "COP(=O)(OC)C(NCc1ccccc1)c1ccc2ccc3cccc4ccc1c2c34 (stereo not shown)",
    "readout_type": "IC50",
    "observed": 29
  }
]
